Test: Metabolic stability in mouse liver microsomes (MouLM)
Assay type: in vitro ADME, KM mice
Conditions: KM, mouse, liver microsomes; MouLM, 5 μM TPB15, 0.5 mg/mL microsomes; read-out: CLint (mL/min/mg), in vitro intrinsic clearance rate

- MOLECULE: "O=C(Nc1ccc(Cl)c(-c2nnc3c(Cl)cccn23)c1)c1ccc(Cl)nc1Cl [TPB15]"
  microsomal CLint at 5 μM (mL/min/mg): 0.0273

====

Assay: Metabolic stability in monkey liver microsomes (MLM)
Assay type: in vitro ADME, crab-eating monkey
Conditions: monkey liver microsomes; MLM, 5 μM TPB15, 0.5 mg/mL microsomes; read-out: CLint (mL/min/mg), in vitro intrinsic clearance rate
Procedure: A total of 450 μL liver microsomes from mice, rat, dog, monkey, and human were spiked with 0.5 μL of TPB15 solution and pre-incubated in a water bath at 37 °C for 10 min. Following this, 50 μL of NADPH were added to initiate the reaction. […] The concentrations of substrate testosterone were measured at 0 and 90 min, and the changes in concentration before and after incubation were compared to confirm the activity of the liver microsomes. […]

- ENTRY_SMILES: "O=C(Nc1ccc(Cl)c(-c2nnc3c(Cl)cccn23)c1)c1ccc(Cl)nc1Cl"
  microsomal CLint at 5 μM: "0.0941 mL/min/mg"
